System: prolactin-releasing peptide receptor (PRRPR)
Construct: full ORF (XP_021184170.1) fused to GFP (PRRPR-GFP), in membranes of overexpressing HaEpi cells
Method: saturation binding to membranes of PRRPR-GFP-overexpressing HaEpi cells, bound […] quantified by enzyme immunoassay ([…]-EIA)
Set-up: species or system Helicoverpa armigera
Property: Kd
State the value with its unit after it.

Inquiry: Query (compound): CC(C)(O)CC[C@@H](O)[C@](C)(O)[C@H]1CC[C@@]2(O)C3=CC(=O)[C@@H]4C[C@@H](O)[C@@H](O)C[C@]4(C)[C@H]3CC[C@]12C [20E, 20-hydroxyecdysone] ; field requested: Kd
Reply text: 12.8 nM
